Attribution: patent US6172185A

Test system: E.coli UB1005
measurement protocol: MIC, modified two-fold microtitre broth dilution
Assay type: cell-based, Escherichia coli
condition description: Table IIC, linear (Group 2): reduced forms of the peptides; Bac (Oxidized) as comparator
reported endpoint: MIC E.coli UB1005 (µg/mL)
Kindly answer with a numeric value in µg/mL, unit omitted.

RRLCRIVVIRVCRR [Bac 2R, tested oxidized and reduced]: 4
RRRLCPIVIRVCRR [Bac 3R, P, (V), tested oxidized and reduced]: 4
RRRCPIVVIRVCRR [Bac 3R, P, tested oxidized and reduced]: 8

// next entry
Request: Provide measured MIC E.coli UB1005 value, entry: RLCRIVPVIRVCR [Bac P, tested oxidized and reduced]
Result: 16

* * *

System: Staph. epidermidis
measurement protocol: MIC, modified two-fold microtitre broth dilution
Format: cell-based, Staphylococcus epidermidis
condition description: Table IIIB, non-linear positive-charge modification derivatives
Where no end group is shown, it is not given here.
reported endpoint: MIC Staph. epidermidis (µg/mL)
Kindly answer with a numeric value in µg/mL, unit omitted.

Study these solved cases before continuing.
RICRIVVIRCIR-NH2 (cysteine pairing not given here) [Bac 2I-NH2]: 8
RLCPRVRIRVCR-NH2 (cysteine pairing not given here) [Bac 2R, P-NH2]: 16

// next entry
Request: Provide measured MIC Staph. epidermidis value, entry: RRRCPIVVIRVCRR [Bac 3R, P, tested oxidized and reduced]
Result: 16

* * *

Target or system Human Red Blood Cells; recorded quantity Minimal Agglutinating Concentration, Reduced Form.
Respond with the figure and its unit, in that order.

RLCRIVPVIRVCR [Bac P]: 64 µg/mL
RRLCRIVVIRVCRR [Bac 2R]: 32 µg/mL
KKCPIVVIRVCK [Bac 3K, P]: 64 µg/mL
RRLCRIVWVIRVCRR [Bac 2R, W]: 8 µg/mL

// next entry
Request: Provide measured Minimal Agglutinating Concentration, Reduced Form value, entry: RLCRIVWVIRVCR [Bac W]
Result: 4 µg/mL

* * *

System: E.coli UB1005
measurement protocol: MIC, modified two-fold microtitre broth dilution
Assay type: cell-based, Escherichia coli
condition description: Table IIC, linear (Group 2): reduced forms of the peptides; Bac (Oxidized) as comparator
reported endpoint: MIC E.coli UB1005

RLCRIVWVIRVCR [Bac W, tested oxidized and reduced]: > 64 µg/mL
RRLCRIVWVIRVCRR [Bac 2R, W, tested oxidized and reduced]: > 64 µg/mL

// next entry
Request: Provide measured MIC E.coli UB1005 value, entry: KKCPIVVIRVCK [Bac 3K, P, tested oxidized and reduced]
Result: > 64 µg/mL
